# Assay Target: CDK2/CycE (Homo sapiens)
# Construct: GST; purchased ProQinase GmbH (Freiburg, Germany); host or cells: insect cells (Sf9)
# Assay Procedure: CDK2/CycE kinase assay (TR-FRET)
# Assay type: biochemical
# Measurement Conditions: avg, read-out: CDK2 avg (IC50 [mol/l])
pIC50: −log10 of the molar value.
Overview of recorded pIC50 for various molecules

Look over these answered cases.
| Molecule | pIC50 |
| --- | --- |
| Cc1nsc(Nc2cnc(C(F)(F)F)cn2)c1C(=O)Nc1ccc(F)c(O[C@@H]2CCN(CC(F)F)C2)c1 [Example 412] | < 4.70 |
| Cc1nsc(Nc2cnc3ccccc3n2)c1C(=O)Nc1cccc(C(=O)N[C@@H](CCC(N)=O)C(=O)O)c1 [Example 103] | ≤ 4.70 |
| COC(=O)CNC(=O)c1cccc(NC(=O)c2c(C)nsc2Nc2cnc3ccccc3n2)c1 [Example 100] | ≤ 4.70 |
| Cc1nsc(Nc2cnc(C(F)(F)F)cn2)c1C(=O)Nc1ccc(O[C@H]2CCN(CC(F)(F)F)C2)nc1 [Example 383] | < 4.70 |

Ask: What pIC50 value was documented for this molecule, Cc1nsc(Nc2cncc(C(F)(F)F)n2)c1C(=O)Nc1ccc(OC2CCN(CC(F)(F)F)CC2)nc1 [Example 16] ?
Result: ≤ 4.70

Ask: Consider next the molecule Cc1nsc(Nc2cnc(C(F)(F)F)cn2)c1C(=O)Nc1ccc(OC2CCCN(CCC(F)(F)F)C2)nc1 (stereo not drawn) [Example 332] in the same way.
Result: ≤ 4.70

Ask: Consider next the molecule Cc1nsc(Nc2cnc3ccccc3n2)c1C(=O)Nc1cccc(C(=O)NCC(=O)O)c1 [Example 99] in the same way.
Result: ≤ 4.70

Ask: Consider next the molecule Cc1nsc(Nc2cnc(C(F)(F)F)cn2)c1C(=O)Nc1ccc(OC2CCN(C(C)C)CC2)nc1 [Example 160] in the same way.
Result: < 4.70

Ask: Consider next the molecule CCCN1CC[C@H](Oc2ccc(NC(=O)c3c(C)nsc3Nc3cnc(C(F)(F)F)cn3)cn2)[C@@H](F)C1 [Example 370] in the same way.
Result: < 4.70

Ask: Consider next the molecule Cc1nsc(Nc2cncc(C(F)(F)F)n2)c1C(=O)Nc1ccc(OCCO)nc1 [Example 276] in the same way.
Result: < 4.70
